TEST_SUMMARY: Quantitative High-Throughput drug screen in 47 multiple myeloma cell lines against the NCATS MIPE library collection: KMS28BM_JCRB cell viability assay (AID 1919874); note: potency is the fitted concentration of half-maximal effect; nearly all actives have a fitted effect of over 35% in size
MEASUREMENT_PARAMETERS: CellTiter-Glo ATP, 48 h; series mostly up to 45.8 µM
Results filed as inconclusive are left out. Activity calls are given as the source filed them. Calls come from the whole dose curve; as a rule, active = well fitted cell-killing curve with a large enough effect; inconclusive = small, poorly fitted or top-dose-only effect, or effect the other way; inactive = no such curve, though single readings can be large or run the other way.
MEASURED_QUANTITY: Potency

[ask] Which Potency value is on record for `COc1c(OCCCN2CCOCC2)ccc2c3n(c(=NC(=O)c4cnc(N)nc4)nc12)CCN3` ?
[reply] 115 nM (active)

[ask] Would you mind doing `COc1ccc2c(c1)CC[C@@H](CN(C)CC(=O)O)[C@H]2c1ccccc1` as well?
[reply] 1050 nM (active)

[ask] Would you mind doing `COc1ccc(OC)c(-c2nnc3ccc(-c4ccc(OC)c(O[C@@H]5CCOC5)c4)nn23)c1` as well?
[reply] 7430 nM (active)

###

TEST_SUMMARY: Quantitative High-Throughput drug screen in 47 multiple myeloma cell lines against the NCATS MIPE library collection: U266_ATCC cell viability assay (AID 1919864); note: nearly all actives have a fitted effect of over 35% in size
MEASUREMENT_PARAMETERS: U266 myeloma viability, CellTiter-Glo ATP luminescence, 48 h; series mostly up to 45.8 µM
Records with an inconclusive call do not appear. The source made the active and inactive calls. Calls come from the whole dose curve; as a rule, active = well fitted cell-killing curve with a large enough effect; inconclusive = small, poorly fitted or top-dose-only effect, or effect the other way; inactive = no such curve, though single readings can be large or run the other way.
Lab note: assign the record to one of active, inactive

[ask] Query: recorded result category for `CC(=O)OCC(=O)[C@@]1(O)[C@H](C)C[C@H]2[C@@H]3C=C(C)C4=Cc5c(cnn5-c5ccccc5)C[C@]4(C)[C@@H]3[C@@H](O)C[C@@]21C` in this test
[reply] active

[ask] Would you mind doing `N#CCNC(=O)c1ccc(-c2ccnc(Nc3ccc(N4CCOCC4)cc3)n2)cc1` as well?
[reply] active

[ask] Would you mind doing CC1COC2(CCN(c3nc(=O)c4cc(C(F)(F)F)cc([N+](=O)[O-])c4s3)CC2)O1 (stereo not given) as well?
[reply] inactive

[ask] Would you mind doing `COc1cc(C(=O)N2CCC(N3CCN(C)CC3)CC2)ccc1Nc1ncc2c(n1)N(C)c1ccccc1C(=O)N2C` as well?
[reply] active

[ask] Would you mind doing `NC(=O)Nc1cc(-c2cccc(F)c2)sc1C(=O)N[C@H]1CCCNC1` as well?
[reply] active

[ask] Would you mind doing `COc1cc(=C2C=c3ccccc3=N2)[nH]c1=Cc1[nH]c(C)cc1C` as well?
[reply] active

[ask] Would you mind doing `C#Cc1cccc(Nc2ncnc3cc(OC)c(OCCCCCCC(=O)NO)cc23)c1` as well?
[reply] active

[ask] Would you mind doing `Cc1ccc(NC(=O)C2(c3ccc4c(c3)OC(F)(F)O4)CC2)nc1-c1cccc(C(=O)O)c1` as well?
[reply] active

[ask] Would you mind doing `Nc1ccc(C(=O)c2cc3c(ccc4ccccc43)[nH]2)cc1` as well?
[reply] active

[ask] Would you mind doing `COc1c(OCCCN2CCOCC2)ccc2c3n(c(=NC(=O)c4cnc(N)nc4)nc12)CCN3` as well?
[reply] active

[ask] Would you mind doing `COc1cc2c(Oc3ccc(NC(=O)C4(C(=O)Nc5ccc(F)cc5)CC4)cc3F)ccnc2cc1OCCCN1CCOCC1` as well?
[reply] active

[ask] Would you mind doing `c1ccc2c(CCNc3ccc(Nc4ccncc4)cc3)c[nH]c2c1` as well?
[reply] active

[ask] Would you mind doing `CC(C)c1noc(N2CCC(COc3ccc(-c4ccc(S(C)(=O)=O)cc4)nc3)CC2)n1` as well?
[reply] inactive

[ask] Would you mind doing `C[C@@]12O[C@@H](C[C@]1(O)CO)n1c3ccccc3c3c4c(c5c6ccccc6n2c5c31)CNC4=O` as well?
[reply] active

[ask] Would you mind doing `OCCCNc1cc(-c2ccnc(Nc3cccc(Cl)c3)n2)ccn1` as well?
[reply] active
